Origin of measurements: paper PMC4671658

- METHOD NOTES: physchem
- EXPERIMENTAL CONDITIONS: pH 7.4
I would appreciate it if you labelled entries Y when chromatographic logD is 4 or higher, otherwise N.

Some entries whose results are on file:
Nc1ccccc1Nc1ccc(Cl)cc1; Y
NCC(c1cccs1)S(=O)(=O)c1ccccc1 (stereo not drawn); N
O=C(NCc1ccco1)N1CCN(Cc2ccc3c(c2)OCO3)CC1; N

Turning now to a further record.
In: Identify whether the reported chromatographic logD of the following compound is 4 or greater: NS(=O)(=O)c1ccc(Nc2cnc3ccccc3n2)cc1
Out: N

###

Please provide measured chromatographic logD for the entries that follow.
- METHOD NOTES: physchem
- EXPERIMENTAL CONDITIONS: pH 7.4
Numbers only.

COc1ccc2nccc(NC(=O)C3CCN(CCc4ccc(Cl)cc4)CC3)c2n1 [TCMDC-143649]; 5.49
CNc1nc(SC)nnc1-c1cccc(Cl)c1Cl [TCMDC-143661]; 4.94
CCCC/C=C/c1cc2ccncc2cc1OC1CCNCC1 [TCMDC-143651]; 3.61
O=C(NCc1ccco1)N1CCN(Cc2ccc(Cl)s2)CC1 [TCMDC-143653]; 4.82

The value of chromatographic logD measured for the molecule O=C(NCc1ccco1)N1CCN(Cc2ccc3c(c2)CCO3)CC1 [TCMDC-143652] turned out to be 3.47
